Entry source: ChEMBL document CHEMBL5050844

- measurement_protocol: Induction of anti-CD3/CD28 antibodies-stimulated human T cell activation at 1 uM assessed fold increase in IL-2 secretion measured by ELISA assay
- Assay type: functional, T cell line
Reported fold change (FC) values follow for various molecules

- molecule: "Cn1cnnc1CC1(c2cccc(N3Cc4c(cc(N5CC6(CCC6(F)F)C5)cc4C(F)(F)F)C3=O)c2)COC1"
  fold change (FC): 2.51
- molecule: "CCOc1cc([C@H](C)Cc2nncn2C)cc(N2Cc3c(cccc3C(F)(F)F)C2=O)n1"
  fold change (FC): 5
- molecule: "CC(O)c1cc2c(c(C(F)(F)F)c1)CN(c1cccc([C@@](C)(F)C(F)(F)c3nncn3C)c1)C2=O (some centres undefined)"
  fold change (FC): 1.01
- molecule: "C[C@@H](c1cccc(N2Cc3c(cccc3C(F)(F)F)C2=O)c1)[C@H](F)c1nncn1C (relative stereo)"
  fold change (FC): 2.51
- molecule: "C[C@H](Cc1nncn1C)c1cccc(N2Cc3c(cc(CO)cc3C(F)(F)F)C2=O)c1"
  fold change (FC): 5
- molecule: "Cn1cnnc1CC1(c2cccc(NC(=O)c3csc(C(F)(F)F)n3)c2)COC1"
  fold change (FC): 1.01
- molecule: "Cn1cnnc1CC1(c2cccc(N3Cc4c(ccc(F)c4C4CC4)C3=O)c2)COC1"
  fold change (FC): 1.01

* * *

- measurement_protocol: Induction of anti-CD3 antibodies-stimulated human CD8+ T cell activation at 1.11 uM assessed fold increase in cell proliferation measured by flow cytometry analysis; also: reference of the scale not given here
- Assay type: functional, T cell line
observed_property: fold change (FC)

- structure_smiles: "COC1CN(Cc2cc3c(c(C(F)(F)F)c2)CN(c2cccc([C@@](C)(F)C(F)(F)c4nncn4C)c2)C3=O)C1"
  recorded_value: 3.01
- structure_smiles: "C[C@@H](c1cc2c(c(C(F)(F)F)c1)CN(c1cccc(C3(Cc4nncn4C)COC3)c1)C2=O)N1CC[C@H](F)C1"
  recorded_value: ">4"
- structure_smiles: "C[C@H](Cc1nncn1C)c1cccc(NC(=O)c2cccc(CCO)n2)c1"
  recorded_value: "<=2"

* * *

Reported fold change (FC) values follow for various compounds
- measurement_protocol: Induction of anti-CD3 antibodies-stimulated human CD4+ T cell activation in immunocompetent mouse assessed fold increase in CD25 expression at 90 mg/kg, ip administered twice a day; also: reference of the scale not given here
- Format: functional

- compound: "C[C@@H](c1cc2c(c(C(F)(F)F)c1)CN(c1cccc(C3([C@@H](F)c4nncn4C)COC3)c1)C2=O)N1CCC2(CC2)C1 (single isomer, unassigned)"
  fold change (FC): 1.51
- compound: "C[C@H](Sc1nncn1C)c1cccc(NC(=O)c2cccc(C(F)(F)F)n2)c1"
  fold change (FC): 1
- compound: "C[C@H](Cc1nncn1C)c1cccc(N2Cc3c(cccc3C(F)(F)F)C2=O)c1.Cl"
  fold change (FC): 1
- compound: "C[C@@H](Sc1nncn1C)c1cccc(NC(=O)c2cccc(C(F)(F)F)n2)c1"
  fold change (FC): 1.51
- compound: "C[C@H](Cc1nncn1C)c1cccc(NC(=O)c2ccnc(C(F)(F)F)n2)c1"
  fold change (FC): 1.51
- compound: "Cn1cnnc1CC1(c2cccc(NC(=O)c3cc(CN4CCC5(CC5)C4)cc(C4CC4)n3)c2)COC1"
  fold change (FC): 1.51

* * *

Reported fold change (FC) values follow for various compounds
- measurement_protocol: Induction of anti-CD3/CD28 antibodies-stimulated human T cell activation at 0.3 uM assessed fold increase in CD25 expression measured by ELISA assay
- Assay type: functional, T cell line

- compound: "Cn1cnnc1CC(C)(C)c1cccc(N2Cc3c(cc(C4CC4)cc3C(F)(F)F)C2=O)c1"
  fold change (FC): 1.01
- compound: "C[C@H](Cc1nncn1C)c1cc(N[C@@H](C)CO)nc(N2Cc3c(cccc3C(F)(F)F)C2=O)c1"
  fold change (FC): 1.01
- compound: "Cc1c[nH]nc1C[C@H](C)c1cccc(N2Cc3c(cccc3C(F)(F)F)C2=O)c1 (single isomer, unassigned)"
  fold change (FC): 1.01
- compound: "CC(C)c1cccc(C(=O)Nc2cccc([C@H](C)Sc3nncn3C)c2)n1"
  fold change (FC): 1.01
- compound: "Cn1cnnc1CC1(c2cccc(N3Cc4c(cc(CN5CC[C@@H](C#N)C5)cc4C(F)(F)F)C3=O)c2)COC1"
  fold change (FC): 1.01
- compound: "Cn1cnnc1CC1(c2cccc(N3Cc4c(cc(CN5CCCc6c5cnn6C)cc4C(F)(F)F)C3=O)c2)COC1"
  fold change (FC): 1.01
- compound: "Cn1cnnc1[C@H](F)[C@](C)(F)c1cccc(N2Cc3c(cc(C4CC4)cc3C(F)(F)F)C2=O)c1"
  fold change (FC): 1.01
- compound: "Cc1cc(C(=O)Nc2cccc(C3(Cc4nocc4C)COC3)c2)nc(C2CC2)n1"
  fold change (FC): 1.31
- compound: "C[C@H](c1cc2c(c(C(F)(F)F)c1)CN(c1cccc(C3(Cc4nncn4C)COC3)c1)C2=O)N1CCC(F)(F)C1"
  fold change (FC): 1.01
- compound: "Cn1cnnc1CC1(c2cccc(NC(=O)c3cc(CN4CCC4)nc(C4CC4)n3)c2)COC1"
  fold change (FC): 1.01
- compound: "C[C@@H](c1cccc(N2Cc3c(cccc3C(F)(F)F)C2=O)c1)[C@@H](F)c1nncn1C (single isomer, unassigned)"
  fold change (FC): 1.01
- compound: "Cn1cnnc1CC1(c2cccc(NC(=O)c3cc(C4CC4)nc(C4CC4)n3)c2)COC1"
  fold change (FC): 1.01
- compound: "Cn1cnnc1CC1(c2cccc(NC(=O)c3cc(CN4CCC5(CC5)C4)cc(C4CC4)n3)c2)COC1"
  fold change (FC): 1.31
- compound: "Cn1cnnc1CC1(c2cccc(N3Cc4c(cc(CN5CC(F)C5(C)C)cc4C(F)(F)F)C3=O)c2)COC1 (stereo not drawn)"
  fold change (FC): 1.31
- compound: "Cn1cnnc1CC1(c2cccc(N3Cc4c(cc(OC5CC5)cc4C(F)(F)F)C3=O)c2)COC1"
  fold change (FC): 1.01
- compound: "Cn1cnnc1CC1(c2cccc(N3Cc4c(cc(CN5C6CCC5CC6)cc4C(F)(F)F)C3=O)c2)COC1"
  fold change (FC): 1.51
- compound: "Cn1cnnc1CC1(c2cccc(N3Cc4c(cc(C(F)(F)CO)cc4C(F)(F)F)C3=O)c2)COC1"
  fold change (FC): 1.01
- compound: "Cn1cnnc1CC1(c2cccc(N3Cc4c(cc(CN5CCC[C@@H](F)C5)cc4C(F)(F)F)C3=O)c2)COC1"
  fold change (FC): 1.31
- compound: "CCOc1cc(N2Cc3c(cc([C@H](C)N4CC[C@H](F)C4)cc3C(F)(F)F)C2=O)cc(C2(Cc3nncn3C)COC2)c1"
  fold change (FC): 1.31
- compound: "CN1CC2CCC(C1)N2c1cc2c(c(C(F)(F)F)c1)CN(c1cccc([C@@](C)(F)C(F)(F)c3nncn3C)c1)C2=O"
  fold change (FC): 1.31
- compound: "Cn1cnnc1C(F)(F)[C@](C)(F)c1cccc(N2Cc3c(cc(CN4CC[C@@H](C#N)C4)cc3C(F)(F)F)C2=O)c1"
  fold change (FC): 1.01
- compound: "Cn1cnnc1[C@@H]1C[C@@H]1c1cccc(N2Cc3c(cc(C#N)cc3C(F)(F)F)C2=O)c1"
  fold change (FC): 1.01
- compound: "Cn1cnnc1CC1(c2cccc(NC(=O)c3cc(C4CC4)nc(C(F)(F)F)n3)c2)COC1"
  fold change (FC): 1.01
- compound: "C[C@H](Sc1nncn1C)c1cc(F)cc(N2Cc3c(cccc3C(F)(F)F)C2=O)c1"
  fold change (FC): 1.01
- compound: "Cn1cnnc1CC1(c2cccc(NC(=O)c3cc(CN4C[C@@H]5[C@H](C4)C5(F)F)cc(C4CC4)n3)c2)COC1"
  fold change (FC): 1.31

* * *

- test_system: E3 ubiquitin-protein ligase CBL-B (Homo sapiens, UniProt Q13191)
- Sequence (Q13191 whole entry, the tested form may be a part): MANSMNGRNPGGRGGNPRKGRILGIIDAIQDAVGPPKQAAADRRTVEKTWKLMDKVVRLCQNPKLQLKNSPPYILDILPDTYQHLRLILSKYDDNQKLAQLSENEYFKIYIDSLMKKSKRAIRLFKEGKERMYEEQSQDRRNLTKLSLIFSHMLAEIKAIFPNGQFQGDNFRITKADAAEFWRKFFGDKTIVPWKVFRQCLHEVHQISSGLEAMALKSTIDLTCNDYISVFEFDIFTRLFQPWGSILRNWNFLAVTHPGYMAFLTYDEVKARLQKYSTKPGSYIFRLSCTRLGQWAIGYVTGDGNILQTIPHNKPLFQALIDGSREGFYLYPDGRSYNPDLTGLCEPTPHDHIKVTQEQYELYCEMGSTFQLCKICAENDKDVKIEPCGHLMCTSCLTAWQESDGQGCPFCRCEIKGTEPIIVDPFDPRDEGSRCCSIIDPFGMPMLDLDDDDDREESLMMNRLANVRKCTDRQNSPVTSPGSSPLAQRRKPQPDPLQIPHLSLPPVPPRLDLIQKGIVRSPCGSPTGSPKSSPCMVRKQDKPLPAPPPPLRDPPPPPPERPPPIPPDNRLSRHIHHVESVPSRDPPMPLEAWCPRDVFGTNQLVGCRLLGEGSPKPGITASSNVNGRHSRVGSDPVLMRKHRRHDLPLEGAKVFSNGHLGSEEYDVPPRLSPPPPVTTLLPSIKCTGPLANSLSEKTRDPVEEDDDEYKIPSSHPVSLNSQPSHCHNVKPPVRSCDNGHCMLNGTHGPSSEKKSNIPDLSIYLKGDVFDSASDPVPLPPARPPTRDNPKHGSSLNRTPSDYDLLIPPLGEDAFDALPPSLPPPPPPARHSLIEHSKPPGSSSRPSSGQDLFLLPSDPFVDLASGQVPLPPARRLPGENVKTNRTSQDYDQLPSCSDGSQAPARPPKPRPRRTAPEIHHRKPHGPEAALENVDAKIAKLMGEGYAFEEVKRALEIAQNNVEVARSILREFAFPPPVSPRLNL
- measurement_protocol: Binding affinity towards N-terminal biotinylated Avi-tagged human CBL-B (36 to 427 residues) measured by surface plasmon resonance assay
pKd: −log10 of the molar value.
observed_property: pKd

- compound: "C=CCC(Sc1nncn1C)c1cccc(NC(=O)c2cc3ccccc3cn2)c1 (stereo not drawn)"
  observed_property: "pKd"
  recorded_value: "< 5.00"
- compound: "C[C@H](Sc1nncn1C)c1cccc(NC(=O)c2cc(C(=O)N3C[C@H](O)C[C@H]3C)ccn2)c1"
  observed_property: "pKd"
  recorded_value: "< 5.00"
- compound: "C[C@H](Cc1nncn1C)c1cccc(N2Cc3c(cc(CN4C[C@@H](F)[C@@H](O)C4)cc3C(F)(F)F)C2=O)c1"
  observed_property: "pKd"
  recorded_value: "> 7.00"

* * *

Reported fold change (FC) values follow for various compounds
- measurement_protocol: Induction of anti-CD3/CD28 antibodies-stimulated human T cell activation at 4 uM assessed fold increase in CD25 expression measured by ELISA assay
- Assay type: functional, T cell line

- compound: "COc1cccc(C(=O)Nc2cccc([C@H](C)Sc3nncn3C)c2)n1"
  fold change (FC): 1.31
- compound: "C[C@H](Cc1nncn1C)c1cc(OCCO)nc(N2Cc3c(cccc3C(F)(F)F)C2=O)c1"
  fold change (FC): 1.31
- compound: "Cn1cnnc1C(F)(F)[C@](C)(F)c1cccc(N2Cc3c(cc(CN4CC[C@H](F)C4)cc3C(F)(F)F)C2=O)c1"
  fold change (FC): 1.51
- compound: "Cn1cnnc1[C@H](F)C(C)(F)c1cccc(N2Cc3c(cccc3C(F)(F)F)C2=O)c1 (single isomer, unassigned)"
  fold change (FC): 1.01
- compound: "Cn1cnnc1CC1(c2cccc(N3Cc4c(cc(CN5C[C@@H](F)[C@@H](F)C5)cc4C(F)(F)F)C3=O)c2)COC1"
  fold change (FC): 1.51
